Tested on: TK-10
Experiment: NCI tumour cell line growth inhibition, 48 h
Active and inactive are the calls of the source. Rule as the data show it: active = GI50 up to about 1.1 µM and inactive = higher.
Answer with one of the outcomes active, inactive

For orientation, consider the following solved cases.
>>> classlabel("O=C(/C=C/c1ccc(O)c(O)c1)O[C@H]1CCCC[C@@H]1OC(=O)/C=C/c1ccc(O)c(O)c1")
"inactive"
>>> classlabel("Cc1cc(-c2ccccc2)nc(Nc2nc3ccccc3o2)n1")
"inactive"
>>> classlabel("COC(=O)c1ccccc1C#CCCCOS(C)(=O)=O")
"inactive"

Input line: What did the test return for "CCOC(=O)c1ccc(/N=N/c2cc(C(=O)OCC)ccc2O)cc1" ?
Output line: inactive

Input line: What did the test return for O=C1NC2c3c(I)sc(I)c3C(O)C2O1 (stereo unspecified) ?
Output line: inactive

Input line: What did the test return for COc1ccc(/C(=C/n2ccnc2)C(O)c2ccc(OC)c(OC)c2)cc1OC (stereo unspecified) ?
Output line: inactive

Input line: What did the test return for CC(=O)OCC1OC(n2c(C)c(C)cc(C#N)c2=S)C(OC(C)=O)C(OC(C)=O)C1OC(C)=O (stereo unspecified) ?
Output line: inactive

Input line: What did the test return for "CN(C)Cc1cc(/N=N/c2ccc(Cl)cc2)ccc1O" ?
Output line: inactive

Input line: What did the test return for "COc1cc2c(/C=C3/C(=O)Nc4ccc(Cl)cc43)c(Cl)[nH]c2cc1C" ?
Output line: active

Input line: What did the test return for "Cc1cccc(C)c1NC(=S)N/C=C(\C#N)C(N)=O" ?
Output line: inactive

Input line: What did the test return for "O=C1/C(=C/c2ccccc2)N=C(c2ccccc2)N1n1c(-c2ccccc2)nc2ccccc2c1=O" ?
Output line: inactive
